Some compounds, each annotated with its measured MIC95.
- System: Mycobacterium tuberculosis
- assay notes: Antimycobacterial activity against Mycobacterium bovis BCG after 6 days by Microdilution Resazurin assay
- Assay type: functional
- settings: variant bovis BCG, 144 h
Give just the number in µM; leave the unit off.

Observe how each entry below is paired with its result.
CC1(C)C=Cc2c(ccc3oc4c(O)cccc4c23)O1; 94
NNC(=O)c1ccncc1; 4.4
CC1(C)CCc2c(ccc3oc4ccc(O)cc4c23)O1; 140
CC1(C)C=Cc2c(ccc3oc4cc(O)ccc4c23)O1; 94
COc1cccc2c1oc1ccc3c(c12)C=CC(C)(C)O3; 89

Requested read-out: MIC95. Entry: COc1ccc2oc3cc4c(cc3c2c1)OC(C)(C)C=C4
89

Given CC1(C)C=Cc2c(ccc3oc4cccc(O)c4c23)O1 , state its recorded MIC95.
94

Any idea what MIC95 was measured for COc1ccc2oc3ccc4c(c3c2c1)C=CC(C)(C)O4 ?
89

Could you share which MIC95 value was measured for CC1(C)C=Cc2c(ccc3oc4ccc(Cl)cc4c23)O1 ?
100

So what does the record say about MIC95 for COc1cccc2oc3ccc4c(c3c12)C=CC(C)(C)O4 ?
89

All figures here come from ChEMBL document CHEMBL1629514.
